The origin of these recorded values is PubChem BioAssay AID1159580.

Assay: chemical genetic growth profiling, strain panel (AID 1159580);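 also: tested at 20 µM; growth read once vehicle control cultures reached saturation at 30 °C; 1 = growth at the plate median or of vehicle wells; lower values mean less growth of the strain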
Details: S. cerevisiae deletion strains, growth OD, locus YCL061C, strain MRC1 (second series), hits give low values
Among all 5,500 compounds or so, about 2,000 (36%) were called active. Roughly 18% stayed inconclusive and do not appear here. Some of the results follow.
METRIC_NAME: normalized growth
Reply: number alone, nothing else.

Query (compound): NC1CCN(O)C1=O (stereo not drawn) ; field requested: normalized growth
1.02

Query (compound): Oc1cc2c(c(Cl)c1O)CCNCC2c1ccccc1 (stereo not drawn) ; field requested: normalized growth
0.985

Query (compound): C=CCN1C[C@@H](C)N([C@H](c2ccc(C(=O)N(CC)CC)cc2)c2cccc(OC)c2)C[C@@H]1C ; field requested: normalized growth
1

====

Test: chemical genetic growth profiling, strain panel (AID 1159580)
Settings: S. cerevisiae deletion strains, growth OD, locus YNL298W, strain CLA4, hits give low values
The campaign covered roughly 5,500 compounds. About 2,000 (36%) were called active. Not shown: some 18% with an inconclusive outcome. The list shows a part of the results.
Consider the cut-off 1. If the recorded normalized growth is strictly smaller, the label is true; if not, the label is false.

is_below(normalized growth, 1) for CCC(=O)O[C@H]1CCC2C3CCC4=CC(=O)CC[C@]4(C)C3CC[C@@]21C (stereo not given in full) ?
true

is_below(normalized growth, 1) for C=C1C([C@]2(C)C(CC(=O)OC)[C@@](C)(COC(C)=O)OC(=O)C[C@@H]2OC(C)=O)[C@@H](OC=O)[C@H](OC(=O)C(O)C(C)CC)[C@@]2(C)[C@H](c3ccoc3)CC(=O)C12O (stereo not given in full) ?
false

====

Answer each item with its documented normalized growth.
Assay: chemical genetic growth profiling, strain panel (AID 1159580);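 also: tested at 20 µM; growth read once vehicle control cultures reached saturation at 30 °C; 1 = growth at the plate median or of vehicle wells; lower values mean less growth of the strain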
Conditions: S. cerevisiae deletion strains, growth OD, locus YDR363W, strain ESC2, hits give low values
The campaign covered roughly 5,500 compounds. About 2,000 (36%) were called active. About 18% were inconclusive and are not listed. Some of the results follow.
Reply: number alone, nothing else.

Query (molecule): CC(N)C(=O)OC(C)(C)Cc1ccc(Cl)cc1 (configuration not stated) ; field requested: normalized growth
0.999

Query (molecule): CNC(=O)OCC[N+](C)(C)C ; field requested: normalized growth
0.957

Query (molecule): CCCCNc1c(C(=O)OCC)c(C)nc2c1cnn2CC ; field requested: normalized growth
1.01

Query (molecule): CC(C)OC(=O)C(C)(C)Oc1ccc(C(=O)c2ccc(Cl)cc2)cc1 ; field requested: normalized growth
0.969

Query (molecule): CCOC(=O)c1cnc2c(cnn2CC)c1NN=C(C)C ; field requested: normalized growth
0.918

Query (molecule): CC(=O)[C@H]1CC[C@H]2[C@@H]3CCC4=CC(=O)CC[C@]4(C)[C@H]3CC[C@]12C ; field requested: normalized growth
1.01

Query (molecule): Nc1nc2ccc(OC(F)(F)F)cc2s1 ; field requested: normalized growth
0.943

====

Experiment: chemical genetic growth profiling, strain panel (AID 1159580);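 also: tested at 20 µM; growth read once vehicle control cultures reached saturation at 30 °C; 1 = growth at the plate median or of vehicle wells; lower values mean less growth of the strain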
Settings: S. cerevisiae deletion strains, growth OD, locus YMR129W
Among all 5,500 compounds or so, about 2,000 (36%) were called active. About 18% were inconclusive and are not listed. Rule as the data show it: active = normalized growth mostly below about 0.91 (no sharp cut-off); inconclusive = no clear call, values can overlap the other calls; inactive = mostly above about 0.92. This is one part of the list.
Entry note: the call must match one of t (active), f (inactive)

Check the results log: what was the call for CN(C)CC/C=C1\c2ccccc2Sc2ccc(Cl)cc21 ?
f

Check the results log: what was the call for CC(C(=O)O)c1cccc(C(=O)c2ccccc2)c1 (stereo not drawn) ?
f

Check the results log: what was the call for CC(=O)NC1SCCC1=O (stereo not drawn) ?
f

Check the results log: what was the call for Cc1cccc(C)c1OCC(C)N (stereo not drawn) ?
f

Check the results log: what was the call for CN1CCCN=C1COC(=O)C(O)(c1ccccc1)C1CCCCC1 (stereo not drawn) ?
f

Check the results log: what was the call for CN1CCC(=C2c3ccccc3CCc3sccc32)CC1 ?
f

Check the results log: what was the call for Cc1[nH]c(C)c(Cl)c(=O)c1Cl ?
f

Check the results log: what was the call for COc1cc(/C=C/C(=O)/C=C(O)/C=C/c2ccc(O)c(OC)c2)ccc1O ?
t

Check the results log: what was the call for CCN(CCO)CCCC(C)Nc1ccnc2cc(Cl)ccc12 (stereo not drawn) ?
f

Check the results log: what was the call for CN1CCC(=C2c3ccccc3CC(=O)c3sccc32)CC1 ?
f

Check the results log: what was the call for CC1=C(C/C=C(\C)CCC[C@H](C)CCC[C@H](C)CCCC(C)C)C(=O)c2ccccc2C1=O ?
f

Check the results log: what was the call for COC1=C(OC)C(=O)C(C/C=C(\C)CC/C=C(\C)CC/C=C(\C)CC/C=C(/C)CC/C=C(\C)CC/C=C(\C)CC/C=C(\C)CC/C=C(\C)CC/C=C(\C)CCC=C(C)C)=C(C)C1=O ?
f

Check the results log: what was the call for Cc1cc(O)c(C=O)c(O)c1C(=O)O ?
f

Check the results log: what was the call for CC(C)(O)[C@@H]1[C@H]2OC(=O)[C@@H]1[C@]1(O)C[C@H]3O[C@]34C(=O)O[C@H]2[C@]14C ?
f

Check the results log: what was the call for COP(=O)(OC)OC=C(Cl)Cl ?
f

Check the results log: what was the call for ClC1=C(Cl)C2(Cl)C3C4C=CC(C4)C3C1(Cl)C2(Cl)Cl (stereo not drawn) ?
f

Check the results log: what was the call for Cc1cc(O)c(C)c(O)c1C(=O)O ?
f

Check the results log: what was the call for CCOC(=O)C(Cc1ccc(O)cc1)NC(C)=O (stereo not drawn) ?
f

Check the results log: what was the call for CC(C(=O)O)c1ccc(-c2ccccc2)c(F)c1 (stereo not drawn) ?
f

Check the results log: what was the call for CCOC(=O)c1c(C)cc(O)c(C=O)c1O ?
t

Check the results log: what was the call for NCCSSCCN ?
f

Check the results log: what was the call for NC(=O)c1ccc[n+]([C@@H]2O[C@H](COP(=O)([O-])OP(=O)(O)OC[C@H]3O[C@@H](n4cnc5c(N)ncnc54)[C@H](O)[C@@H]3O)[C@@H](O)[C@H]2O)c1 ?
f

Check the results log: what was the call for O=C(O)C1(O)C[C@@H](O)C(O)[C@H](O)C1 (stereo partly drawn) ?
f

====

Assay: chemical genetic growth profiling, strain panel (AID 1159580);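 also: tested at 20 µM; growth read once vehicle control cultures reached saturation at 30 °C; 1 = growth at the plate median or of vehicle wells; lower values mean less growth of the strain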
Conditions: S. cerevisiae deletion strains, growth OD, locus YLR058C, strain SHM2, hits give low values
Among all 5,500 compounds or so, about 2,000 (36%) were called active. About 18% were inconclusive and are not listed. The list shows a part of the results.
Answer each item with its documented normalized growth.
Reply: number alone, nothing else.

Query (compound): OCC(O)C(O)C(O)CO (centres undefined) ; field requested: normalized growth
1

Query (compound): COc1cc2c(cc1OC)C1C(=O)c3c(O)cc4c(c3OC1CO2)C=CC(C)(C)O4 (centres undefined) ; field requested: normalized growth
0.977

Query (compound): CC(C[N+](C)(C)C)OC(N)=O (centres undefined) ; field requested: normalized growth
0.991

Query (compound): CCCCCCCCCCCCCCCC(=O)OC/C=C(C)/C=C/C=C(C)/C=C/C1=C(C)CCCC1(C)C ; field requested: normalized growth
0.988

Query (compound): C=C1C([C@]2(C)C(CC(=O)OC)[C@@](C)(COC(C)=O)OC(=O)C[C@@H]2OC(C)=O)[C@@H](OC=O)[C@H](OC(=O)C(OC(C)=O)C(C)CC)[C@@]2(C)[C@H](c3ccoc3)CC(=O)C12O (some centres undefined) ; field requested: normalized growth
1.01

Query (compound): C[N+](C)(C)CCOC(N)=O ; field requested: normalized growth
1

Query (compound): CC(C)(OC(=O)c1ccccc1)[C@@H]1Cc2cc3ccc(=O)oc3cc2O1 ; field requested: normalized growth
0.975

Query (compound): CC(C)OC(=O)C(C)(C)Oc1ccc(C(=O)c2ccc(Cl)cc2)cc1 ; field requested: normalized growth
1

Query (compound): COc1ccc2c(c1OC)C(=O)O[C@@H]2[C@H]1c2cc3c(cc2CCN1C)OCO3 ; field requested: normalized growth
1.02

Query (compound): C=C(C)[C@@H]1[C@H]2OC(=O)[C@@H]1[C@]1(O)C[C@H]3O[C@]34C(=O)O[C@H]2[C@]14C ; field requested: normalized growth
0.964

Query (compound): C[C@H]1CC2C([C@@H](O)C[C@@]3(C)C2CC[C@]3(O)C(=O)CO)[C@@]2(C)C=CC(=O)C=C12 (some centres undefined) ; field requested: normalized growth
0.999

Query (compound): COc1cc(O)c(C(=O)/C=C/c2ccccc2)c(OC)c1 ; field requested: normalized growth
0.848

Query (compound): CCOC(=O)C(Cc1ccc(O)cc1)NC(C)=O (centres undefined) ; field requested: normalized growth
1.02

Query (compound): COc1cc2c(cc1OC)Cc1cc(OC)c(OC)cc1Cc1cc(OC)c(OC)cc1C2 ; field requested: normalized growth
1.02

Query (compound): O=C1C=CC(=C(c2ccc(O)cc2)c2ccc(O)cc2)C=C1 ; field requested: normalized growth
0.991

Query (compound): CC(C)CC(NC(=O)C(Cc1ccccc1)NC(=O)CNC(=O)CNC(=O)C(N)Cc1ccc(O)cc1)C(=O)O (centres undefined) ; field requested: normalized growth
0.981

Query (compound): CC(Oc1ccccc1)C(=O)N[C@@H]1C(=O)N2[C@@H]1SC(C)(C)[C@@H]2C(=O)O (some centres undefined) ; field requested: normalized growth
1.01

Query (compound): N=c1ccn2c(n1)O[C@@H]1C2O[C@H](CO)[C@H]1O (some centres undefined) ; field requested: normalized growth
1.01

Query (compound): CS(=O)(=O)c1ccc(C2=C(c3ccccc3)C(=O)OC2)cc1 ; field requested: normalized growth
1

Query (compound): CCC(C)C(OC(C)=O)C(=O)OC1C(O)C2C3(C)C=CC(=O)C(C)(C)C3CC(OC(=O)C(O)C(C)C)C2(C)C23OC2CC(c2ccoc2)C13C (centres undefined) ; field requested: normalized growth
0.995

Query (compound): O=C(O)c1c2ccccc2cc2ccccc12 ; field requested: normalized growth
1.02

Query (compound): C=C1C([C@]2(C)C(CC(=O)OC)[C@@](C)(COC(C)=O)OC(=O)C[C@@H]2OC(C)=O)[C@@H](OC=O)[C@H](OC(=O)C(O)C(C)CC)[C@@]2(C)[C@H](c3ccoc3)CC(=O)C12O (some centres undefined) ; field requested: normalized growth
1.01

Query (compound): CN1CCC(=C2c3ccccc3Sc3ccccc32)CC1 ; field requested: normalized growth
1

Query (compound): CC(=O)OCC(=O)[C@@]1(O)CCC2C3CCC4=CC(=O)CC[C@]4(C)C3C(=O)C[C@@]21C (some centres undefined) ; field requested: normalized growth
1.01

Query (compound): COc1cc2c(cc1OC)C1C(=O)c3c(OC)cc4c(c3OC1CO2)CCC(C)(C)O4 (centres undefined) ; field requested: normalized growth
1.02

Query (compound): C[C@@H]1[C@H]2[C@H](O[C@@H]3O[C@H](CO)[C@@H](O)[C@H](O)[C@H]3O)OC=C(C(=O)O)[C@H]2C[C@@H]1O ; field requested: normalized growth
0.977

Query (compound): CCC(C)C(=O)O[C@H]1[C@H](O)C2C(CN3CC(C)CCC3[C@@]2(C)O)C2C[C@]34O[C@]5(O)C(OC(=O)C(C)(O)C(C)O)CC[C@@]3(C)C5C(OC(C)=O)[C@@H](OC(C)=O)C4[C@@]21O (some centres undefined) ; field requested: normalized growth
1.01

Query (compound): NCC1CCC(C(=O)O)CC1 (centres undefined) ; field requested: normalized growth
1

Query (compound): CN(C)c1ccc(C(=C2C=CC(=[N+](C)C)C=C2)c2ccc(N(C)C)cc2)cc1 ; field requested: normalized growth
0.364
